Biological target: Solute carrier family 15 member 1 (Homo sapiens, UniProt P46059)
Sequence (P46059 whole entry): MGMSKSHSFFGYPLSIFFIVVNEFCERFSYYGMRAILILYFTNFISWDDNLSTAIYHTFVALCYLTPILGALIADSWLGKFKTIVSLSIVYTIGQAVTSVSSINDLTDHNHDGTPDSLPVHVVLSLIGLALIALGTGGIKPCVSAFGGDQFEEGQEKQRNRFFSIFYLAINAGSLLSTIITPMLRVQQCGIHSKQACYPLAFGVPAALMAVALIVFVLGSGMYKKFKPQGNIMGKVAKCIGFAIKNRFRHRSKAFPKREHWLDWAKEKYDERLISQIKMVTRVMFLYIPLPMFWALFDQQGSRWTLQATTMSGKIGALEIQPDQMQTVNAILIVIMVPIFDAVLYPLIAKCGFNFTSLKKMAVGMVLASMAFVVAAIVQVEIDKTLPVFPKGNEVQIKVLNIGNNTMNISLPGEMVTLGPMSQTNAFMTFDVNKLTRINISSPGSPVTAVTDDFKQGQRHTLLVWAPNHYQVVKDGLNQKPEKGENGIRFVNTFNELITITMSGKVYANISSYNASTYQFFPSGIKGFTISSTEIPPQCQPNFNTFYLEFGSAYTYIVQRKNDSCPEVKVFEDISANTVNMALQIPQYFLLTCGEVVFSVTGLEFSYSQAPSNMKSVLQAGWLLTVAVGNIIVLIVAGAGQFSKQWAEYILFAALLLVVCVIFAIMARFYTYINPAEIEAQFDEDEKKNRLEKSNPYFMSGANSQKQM
Where a SMILES comes first, the peptide text is derived from it.
pKi: recorded values
Please express pKi as -log10 of the molar concentration.

Worked set:
                                   molecule  result
0  C[C@H](NC(=O)[C@@H](N)CO)C(=O)O (H-Ser-Ala-OH)    3.85
1  CC1NC(=O)C(CCCCN)NC1=O (configuration not stated)    2.27
2  Cc1cccc(NC(=O)C(C)N)c1 (configuration not stated)    3.39
3  CC(N)C(=O)Nc1ccccc1Cl (configuration not stated)    2.11

Report pKi, nothing else, for this molecule: N[C@@H](Cc1ccccc1)C(=O)N1CCC[C@H]1C(=O)O (H-Phe-Pro-OH)
3.89

State its pKi: CC(NC(=O)C(N)Cc1ccc(OCc2ccccc2)cc1)C(=O)O (configuration not stated)
5.00

Identify measured pKi associated with N[C@@H](Cc1ccc(O)cc1)C(=O)N1CCC[C@H]1C(=O)O (H-Tyr-Pro-OH)
3.80

Consider the molecule CC(N)C(=O)NCc1ccccc1 (configuration not stated) . State its measured pKi.
1.85

Read off the recorded pKi for CC(C)[C@H](N)C(=O)N1CCC[C@H]1C(=O)O (H-Val-Pro-OH)
4.22

Assign pKi to the following record: CC(N)C(=O)Nc1c(F)c(F)c(F)c(F)c1F (configuration not stated)
2.51

Supply pKi value. Item: C[C@H](N)C(=O)N[C@@H](CO)C(=O)O (H-Ala-Ser-OH)
3.85

Given NCC(=O)NCC(=O)O (H-Gly-Gly-OH) , respond with its pKi.
3.00
